- TARGET_OR_TEST_SYSTEM: MAP/microtubule affinity-regulating kinase 4 (Homo sapiens);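 also: values are averaged percent inhibition of MARK4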
- ASSAY_CONTEXT: at 0.1 µM
PROPERTY_LABEL: inhibition

Need inhibition, item CS(=O)(=O)CCN(CC#N)Cc1ccc(-c2ccc3ncnc(Nc4ccc(OCc5cccc(F)c5)c(Cl)c4)c3c2)o1
0.8%

Follow-up entry: CCCN1CCC=C(c2ccc(Nc3nc(Nc4ccccc4C(N)=O)c4cc[nH]c4n3)c(C)c2)C1
3.18%

And then Cc1nn(C)c2cc(N(C)c3ccnc(Nc4cccc(S(N)(=O)=O)c4)n3)ccc12 , what is it?
1.36%

And the next one, COc1cc2c(cc1Nc1nc(N3CCc4ccccc43)c3cc[nH]c3n1)N(C(=O)CN(C)C)CC2 ?
0.37%

Follow-up item: CCn1c(-c2nonc2N)nc2ccncc21
1.33%

Now try COc1cc2ncn(-c3cc(OCc4ccccc4C(F)(F)F)c(C(N)=O)s3)c2cc1OC .
5.05%

Same for COc1cc(C=NNc2ncnc3c2cnn3-c2ccccc2)ccc1O
1.61%

Follow-up item: CS(=O)(=O)Nc1ccc(N/C=C2\C(=O)Nc3ccccc32)cc1
3.29%

Next up: CNC(=O)c1cncc(/C=C/c2c(Cl)cccc2Cl)c1
1.49%

CS(=O)(=O)CCNCc1ccc(-c2ccc3ncnc(Nc4ccc(OCc5cccc(F)c5)c(C(F)(F)F)c4)c3c2)o1 , same question.
1.59%

* * *

- TARGET_OR_TEST_SYSTEM: Ephrin type-A receptor 3 (Homo sapiens) (UniProt P29320);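 also: values are mean inhibition of EPHA3, from the GSK PKIS dataset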
- Sequence (P29320 whole entry): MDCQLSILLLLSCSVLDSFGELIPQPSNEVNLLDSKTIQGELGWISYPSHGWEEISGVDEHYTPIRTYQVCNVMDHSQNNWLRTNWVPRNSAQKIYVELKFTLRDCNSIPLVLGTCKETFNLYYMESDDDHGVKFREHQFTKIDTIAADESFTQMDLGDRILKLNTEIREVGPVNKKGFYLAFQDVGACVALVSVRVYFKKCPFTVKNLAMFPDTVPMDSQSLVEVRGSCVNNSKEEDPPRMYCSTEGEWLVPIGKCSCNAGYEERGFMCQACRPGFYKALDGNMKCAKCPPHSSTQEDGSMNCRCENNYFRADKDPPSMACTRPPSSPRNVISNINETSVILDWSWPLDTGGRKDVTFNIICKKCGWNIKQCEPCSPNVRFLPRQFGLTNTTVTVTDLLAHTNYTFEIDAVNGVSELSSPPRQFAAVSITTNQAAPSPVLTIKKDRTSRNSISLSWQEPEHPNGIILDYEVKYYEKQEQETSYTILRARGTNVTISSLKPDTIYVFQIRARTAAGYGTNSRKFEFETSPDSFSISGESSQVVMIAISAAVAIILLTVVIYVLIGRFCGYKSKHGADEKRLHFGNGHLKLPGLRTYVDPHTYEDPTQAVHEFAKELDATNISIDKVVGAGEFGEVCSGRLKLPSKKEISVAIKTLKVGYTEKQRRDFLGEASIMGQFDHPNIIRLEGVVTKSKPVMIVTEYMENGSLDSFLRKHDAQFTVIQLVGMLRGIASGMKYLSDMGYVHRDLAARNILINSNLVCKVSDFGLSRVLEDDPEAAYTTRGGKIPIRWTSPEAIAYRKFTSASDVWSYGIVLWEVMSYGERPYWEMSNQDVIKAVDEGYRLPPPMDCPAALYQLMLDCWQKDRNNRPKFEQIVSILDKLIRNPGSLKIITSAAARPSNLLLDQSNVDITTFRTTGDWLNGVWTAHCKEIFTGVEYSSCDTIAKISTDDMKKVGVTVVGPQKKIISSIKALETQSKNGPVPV
- ASSAY_CONTEXT: at 0.1 µM
Could you please report measured inhibition for the items listed next?
The reply should be a number in %, with the unit left off.

Please report the recorded inhibition for COc1cc2c(cc1Nc1nc(N3CCc4ccccc43)c3cc[nH]c3n1)N(C(=O)CN(C)C)CC2 .
2.13

Repeat for the following compound: NC(=O)c1cccc(Nc2nccc(Nc3cccc4[nH]ncc34)n2)c1
40.2

Query Fc1cccc(COc2ccc(Nc3ncnc4cc(-c5ccc[nH]5)sc34)cc2Cl)c1 next
-1.97

Moving on to the next compound: O=C1NC(=O)C(N2CCc3ccccc32)=C1c1ccc(Cl)cc1
3.76

Follow-up item: CS(=O)(=O)CCNCc1nc(-c2ccc3ncnc(Nc4ccc(F)c(Cl)c4)c3c2)cs1
2.83

* * *

Provide the recorded inhibition for the entries that follow.
- TARGET_OR_TEST_SYSTEM: Tyrosine-protein kinase Lck (Homo sapiens) (UniProt P06239);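 also: reported values are mean percent inhibition of Lck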
- Sequence (P06239 2-509 limits assumed): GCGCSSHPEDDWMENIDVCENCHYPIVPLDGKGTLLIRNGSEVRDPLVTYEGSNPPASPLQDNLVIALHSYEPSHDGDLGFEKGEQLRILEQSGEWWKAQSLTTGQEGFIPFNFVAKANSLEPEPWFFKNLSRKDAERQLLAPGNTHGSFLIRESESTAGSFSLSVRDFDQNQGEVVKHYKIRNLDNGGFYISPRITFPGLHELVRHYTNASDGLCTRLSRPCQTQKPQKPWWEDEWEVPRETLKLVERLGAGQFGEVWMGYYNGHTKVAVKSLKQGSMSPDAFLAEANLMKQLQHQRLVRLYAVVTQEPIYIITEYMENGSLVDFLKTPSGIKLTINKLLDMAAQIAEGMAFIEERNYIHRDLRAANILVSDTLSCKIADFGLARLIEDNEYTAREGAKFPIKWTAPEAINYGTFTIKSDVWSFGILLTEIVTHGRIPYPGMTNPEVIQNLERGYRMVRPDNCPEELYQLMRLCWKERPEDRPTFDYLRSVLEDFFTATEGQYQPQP
- ASSAY_CONTEXT: at 0.1 µM
Numeric answer only, unit % assumed.

Fill in the recorded inhibition for this compound, with Tyrosine-protein kinase Lck (Homo sapiens) (UniProt P06239) as test system: CCn1c(-c2nonc2N)nc2c(C#CC(C)(C)O)nc(OC[C@@H](N)c3ccccc3)cc21
-1.85

And CCn1c(-c2nonc2N)nc2c(N3CCCC3)nccc21 ?
-2.27

Cc1nnc(-c2ccc(C)c(-c3ccc(C(=O)Nc4cccc(C#N)c4)cc3)c2)o1 ?
1.89

Follow-up item: N#Cc1c(NC(=O)c2cccc3ccccc23)sc2c1CCCC2
2.98

Next up: NCc1ccc(-c2nc(-c3ccc(Cl)c(O)c3)c(-c3ccncc3)[nH]2)cc1
5.93

Also need O=C1NC(=O)C(c2ccc(Cl)cc2)=C1Nc1ccc(Cl)c(C(=O)O)c1 , thanks.
-0.44

And the next one, COc1ccccc1Nc1ncc(-c2ccccc2)o1 ?
4.55

Also check COc1cc2ncn(-c3cc(O[C@H](C)c4ccccc4Cl)c(C(N)=O)s3)c2cc1OC
5.7

Follow-up item: CCn1c(-c2nonc2N)nc2cncc(C(=O)N3CCNCC3)c21
3.56

Another: Nc1nc(-c2ccccn2)c(-c2ccc3ncccc3n2)s1
0.48

How about COc1ccc(-c2ccncc2)cc1C(N)=O ?
3.42

Try this compound too: CCn1c(-c2nonc2N)nc2ccncc21
1.33

Now consider CN(C)c1cc2c(Nc3ccc4nc(Cc5ccccc5)[nH]c4c3)ncnc2cn1 .
7.36

How about this compound: CCn1c(-c2nonc2N)nc2cnc(Oc3cccc(NC(=O)c4ccc(OCCN5CCOCC5)cc4)c3)cc21
0.98

Same lookup for O=C(Nc1n[nH]c2nc(-c3ccco3)c(Br)cc12)C1CC1 , please.
1.39

Next entry: CC1=C(C(=O)Nc2ccc3[nH]ncc3c2)C(c2ccc(Cl)c(Cl)c2)CC(=O)N1 (configuration not stated)
4.63

And for c1cnn2ncc(-c3ccnc(Nc4ccc5c(c4)OCCO5)n3)c2c1 ?
3.28

Let us now turn to CC1=C(C(=O)Nc2ccc3[nH]ncc3c2)C(c2ccc(F)cc2)NC(=O)N1 (configuration not stated)
-0.28

Subsequent entry: Nc1ncnc2occ(-c3ccc(NC(=O)Nc4cc(C(F)(F)F)cc(C(F)(F)F)c4)cc3)c12
6.28

Likewise for Fc1cccc(COc2ccc(Nc3ncnc4sc(-c5cccs5)cc34)cc2Cl)c1 ?
0.99

Same for COc1cc(C)c(NC(=O)CN(C)C)cc1Nc1nc(Nc2cccc(F)c2C(N)=O)c2cc[nH]c2n1
1.38

Same thing, different compound: COc1ccc(COc2ccc(Cc3cnc(N)nc3N)cc2OC)cc1
0.03
